test system: Human immunodeficiency virus 1; assay: Antiviral activity against Human immunodeficiency virus 1 infected human MT4 cells assessed as protection against virus-induced cytopathic effect; assay type: functional, organism-based; settings: Human immunodeficiency virus 1, MT4; read-out: EC50
Consider the following compounds and their measured pEC50 readings.
In textbook form, pEC50 equals minus log to base ten of the concentration in mol/L.

Look over these answered cases.
O=c1oc2ccc(Cl)cc2n1Cc1c(F)cccc1F: 5.43
CC(C)c1ccc(Cn2c(O)nc3ccc(Cl)cc32)cc1: 5.55
Oc1nc2ccc(Cl)cc2n1Cc1cccc2ccccc12: 6.06

Now turn to the next compound.
Note to self: pEC50 recorded for Oc1nc2cc(Cl)ccc2n1Cc1c(F)cccc1F was 4.53
